Biological target: T1, soluble FGFR3c receptor protein (human, UniProt P22607 141-372)
T1 sequence: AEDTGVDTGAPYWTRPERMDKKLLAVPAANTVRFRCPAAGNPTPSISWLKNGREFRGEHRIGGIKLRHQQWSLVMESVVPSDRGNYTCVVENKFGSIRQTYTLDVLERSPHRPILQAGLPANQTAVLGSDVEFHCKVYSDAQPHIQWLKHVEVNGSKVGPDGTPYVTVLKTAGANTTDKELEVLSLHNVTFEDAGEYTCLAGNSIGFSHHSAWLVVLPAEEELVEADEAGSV
Assay: BLI Octet RED96, antibody on anti-hIgG Fc tip
Description: Briefly, the Pall ForteBio Octet RED96 Bio-Layer Interferometry system was used to determine the specificity of anti-FGFR antibodies for FGFR1c, FGFR2c, FGFR3c, and FGFR4. […] The baseline step was followed by an association step of 300 seconds wherein the binding interaction between the immobilized antibodies and soluble receptors was measured. […] Each binding response was measured and reported real time on a sensorgram trace. […]
Give measured koff for each item. Keep answers brief.
Field: value (include unit after the number)

Exam item: Reported koff, binder Ab19 (antibody, human IgG2, kappa, V domains shown, format in the assays not spelled out) VH: EVQLLESGGGVVQPGRSLRLSCAASGFTFSSYAMHWVRQAPGKGLEWVAVISYDGSNKYYADSVKGRFTISRDNSKNTLSLQMNSLRVEDTAIYYCVRGAGRGFTLGPDGFDIWGQGTMVTVSS VL: DIVMTQTPLSLSVTPGQPASISCKSSRSLLHSDGKTYVYWYVQKSGQPPQLLIYELSNRFSGVPDRFSGSGSRTDFTLKISRVEAEDVGVYYCMQYIEAPLTFGGGTKVEIKR : ____
Marked response: 0.000983 s⁻¹

Exam item: Need koff of Vk3 combined with the VH of Ab15 (antibody, V domains shown, captured on anti-human IgG Fc tips) VH: EVQLLESGGGVVQPGRSLRLSCAASGFTFSSYAMHWVRQAPGKGLEWVAVISYDGSNKYYADSVKGRFTISRDNSKNTLSLQMNSLRVEDTAIYYCVRGAGRGYTYGPDGFDIWGQGTMVTVSS VL: DIVMTQTPLSLSVTPGQPASISCTSSRSLLHSDGKTYVYWYLQKSGQPPQLLIYELSNRFSGVPDRFSGSGSRTDFTLKISRVEAEDVGVYYCMQYIEAPLTFGGGTKVEIK , thanks.
Marked response: 0.00101 s⁻¹

Exam item: # get_value(readout='koff', item= Vh1 combined with the VL of Ab15 (antibody, V domains shown, captured on anti-human IgG Fc tips) VH: EVQLVESGGGVVQPGRSLRLSCAASGFTFSSYAMHWVRQAPGKGLEWVAVISYDGSNKYYADSVKGRFTISRDNSKNTLYLQMNSLRAEDTAIYYCVRGAGRGYTYGPDGFDIWGQGTMVTVSS VL: DIVMTQTPLSLSVTPGQPASISCTSSRSLLHSDGKTYVYWYVQKSGQPPQLLIYELSNRFSGVPDRFSGSGSRTDFTLKISRVEAEDVGVYYCMQYIEAPLTFGGGTKVEIK )
Marked response: 0.001 s⁻¹
